- test.system: wild type transthyretin (WT-TTR) (Homo sapiens)
- Construct: made in house; host or cells: E. coli BL21 (DE3), pET23a plasmid
- assay.protocol: WT-TTR amyloid fibril formation assay (turbidimetry, acid-induced)
- Assay type: biochemical
- protocol.conditions: WT-TTR fixed at 3.6 μM, ten compound concentrations, pH 4.4, 72 hours
experimental.endpoint: pIC50
Lab note: report pIC50 as minus log10 of the concentration in molar units, number only.

Notebook: `Cc1cc(/C=C2\SC(=S)N(CC(=O)O)C2=O)cc(C)c1O` , pIC50 read as 5.63

Per the record, `Cc1cc(/C=C2\SC(=S)N([C@@H](CCC(=O)O)C(=O)O)C2=O)cc(Cl)c1O` has pIC50 of 5.75

Entry COc1cccc(/C=C2\SC(=S)N(C(C)C(=O)O)C2=O)c1 (centres unmarked) ; pIC50 = 5.62

Quick note, pIC50 for `O=C(O)CN1C(=O)/C(=C/c2cc(F)c(O)c(F)c2)SC1=S` landed at 5.74

Value of pIC50 reported for the compound `O=C(O)CN1C(=O)/C(=C/c2cc(Cl)cc(Cl)c2)SC1=S` is 5.79

For reference, reported pIC50 for `COc1cc(/C=C2\SC(=S)N(CC(=O)O)C2=O)cc(C)c1O` stands at 5.69

Record summary for `O=C(O)CCN1C(=O)/C(=C/c2cc(Cl)cc(Cl)c2)SC1=S` : reported pIC50 = 5.71

Entry `O=C(O)CC[C@@H](C(=O)O)N1C(=O)/C(=C/c2c(Cl)cccc2Cl)SC1=S` , pIC50 reported as 5.69

====

For each of the molecules below, state its Fibril Formation (%).
- test.system: Val122Ile transthyretin (V122I-TTR) (Homo sapiens, UniProt P02766, V142I)
- assay.protocol: V122I-TTR amyloid fibril formation assay (turbidimetry, acid-induced)
- Type: biochemical
- protocol.conditions: V122I-TTR 3.6 μM, pH 4.4, 72 hours, 37° C.
Numbers only here, please. The scale is %.

Recorded result, `O=C(O)CCN1C(=O)/C(=C/c2cc(F)c(O)c(F)c2)SC1=S` , Fibril Formation (%): 36

Given item `O=C(O)CCN1C(=O)/C(=C/c2cc(Cl)c(O)c(Cl)c2)SC1=S` , the value recorded as its Fibril Formation (%) is 17

// Fibril Formation (%) lookup, molecule = `O=C(O)CN1C(=O)/C(=C/c2cc(O)c(O)c(Cl)c2)SC1=S` , result: 29

Query NC(Cc1cc(I)c(Oc2cc(I)c(O)c(I)c2)c(I)c1)C(=O)O (stereo in doubt) [Thyroxine, reference compound] yields Fibril Formation (%) of 42

Entry COc1cc(/C=C2\SC(=S)N(CC(=O)O)C2=O)cc(Cl)c1O [AT50-A00 (Z)] , Fibril Formation (%) reported as 52

According to the records, this molecule Oc1c(Cl)cc(-c2cc(Cl)c(O)c(Cl)c2)cc1Cl [2OH- PCB80, reference compound] displays Fibril Formation (%) of 24

Query COc1cc(/C=C2/SC(=S)N(CC(=O)O)C2=O)cc(Cl)c1O [AT50-A00 (E)] yields Fibril Formation (%) of 45

====

- test.system: Val122Ile transthyretin (V122I-TTR) (Homo sapiens, UniProt P02766, V142I)
- assay.protocol: V122I-TTR amyloid fibril formation assay (turbidimetry, acid-induced)
- Assay type: biochemical
- protocol.conditions: V122I-TTR fixed at 3.6 μM, ten compound concentrations, pH 4.4, 72 hours
Answer each item with its documented IC50.
Number only, in µM; omit the unit.

Sample Cc1cc(/C=C2\SC(=S)N(CC(=O)O)C2=O)cc(C)c1O [AT50-A17] , system: Val122Ile transthyretin (V122I-TTR) (Homo sapiens, UniProt P02766, V142I). Its IC50 is 3.16

Observed IC50, Val122Ile transthyretin (V122I-TTR) (Homo sapiens, UniProt P02766, V142I), COc1cc(/C=C2\SC(=S)N([C@H](CC(C)C)C(=O)O)C2=O)cc(OC)c1O [AT50-B01] : 1.48

The measured IC50 that COc1cc(/C=C2\SC(=S)N(CC(=O)O)C2=O)cc(Cl)c1O [AT50-A00 (Z)] showed for Val122Ile transthyretin (V122I-TTR) (Homo sapiens, UniProt P02766, V142I) is 3.73

The reported Val122Ile transthyretin (V122I-TTR) (Homo sapiens, UniProt P02766, V142I) IC50 of O=C(O)CCCN1C(=O)/C(=C/c2cc(F)c(O)c(F)c2)SC1=S [AT50-C09] is 3.19
